# Assay Procedure: A CellTox Green Cytotoxicity Assay to monitor cytotoxicity in HepG2 cells - 8 hour (AID 1224890); note: nearly all actives have a fitted effect of over 45% in size
# Settings: CellTox Green fluorescence; series mostly up to 76.8 µM
Records with an inconclusive call do not appear. The source made the active and inactive calls. Calls come from the whole dose curve; as a rule, active = well fitted activation curve with a large enough effect in the repeat runs; inconclusive = weak or mixed curves; inactive = flat fitted curve, though single readings scatter.
Please answer using one outcome listed in true (1) = active, false (0) = inactive

Examples from the recorded data:
CCCCOC(=O)c1ccccc1C(=O)OCc1ccccc1: false (0)
CCC(C)(NC(=O)c1cc(Cl)c(C)c(Cl)c1)C(=O)CCl (configuration not stated): false (0)
O=C(NCc1cccnc1)Nc1ccc([N+](=O)[O-])cc1: false (0)
CC(C)=CCOc1c2occc2cc2ccc(=O)oc12: false (0)
CCOP(=S)(Oc1ccc([N+](=O)[O-])cc1)c1ccccc1 (configuration not stated): false (0)
Nc1nc(=S)[nH][nH]1: false (0)
CCn1cc[n+](C)c1: false (0)
O=C1NCN(c2ccccc2)C12CCN(CCCOc1ccc(F)cc1)CC2: false (0)
C#CCOC(C(=O)OCCN(C)C)(c1ccccc1)c1ccccc1: false (0)
OC(c1ccc(Cl)cc1)(c1ccc(Cl)cc1)c1cccnc1: false (0)

Let us examine a further case.
stdin: # outcome recorded in this test, key = c1ccc(C2CC2)c(OCC2=NCCN2)c1
stdout: false (0)
